- System: Phosphodiesterase 4 (Cavia porcellus)
- Procedure Summary: Phosphodiesterase 4 inhibitory activity measured against guinea pig macrophage homogenate
Observed Property: IC50 (µM)

[I] COc1ccc(S(=O)(=O)C(CC(=O)NO)c2ccccc2OCc2ccccc2)cc1OC1CCCC1 (stereo not given)
[II] COc1ccc(S(=O)(=O)C(CCCc2ccccc2)CC(=O)NO)cc1OC (stereo not given)
IN: I need your help: which of the pair I , II has higher IC50? To answer, give the label that identifies your chosen option.
OUT: I

[1] COc1ccc(S(=O)(=O)C(CCc2ccccc2)CC(=O)NO)cc1OC (stereo not given)
[2] COc1ccc(S(=O)(=O)C(CCc2ccc(OCc3ccccc3)cc2)CC(=O)NO)cc1OC (stereo not given)
[3] CCCCCCC(CC(=O)NO)S(=O)(=O)c1ccc(OC)c(OC2CCCC2)c1 (stereo not given)
IN: Returns the items ordered by IC50, from maximum to minimum. Please list the labels according to the requested order.
OUT: 1, 2, 3
